Cited source for all entries: ChEMBL document CHEMBL1201862

GI50 by entry:
# System: CAKI-1
# assay-notes: NCI tumour cell line growth inhibition, 48 h
Calls of active or inactive are those of the source. No stated cut-off is given here; in the data, active = GI50 up to about 1.1 µM and inactive = higher.

# annotated cases, reported GI50 shown
{"compound": "CC(C)[Si]1(C(C)C)OCC2OC3(CO)C(Oc4nc(=O)ccn43)C2O[Si](C(C)C)(C(C)C)O1 (stereo not given)", "measured-on": "CAKI-1", "GI50": "15.7 µM (inactive)"}
{"compound": "Nc1ncn([C@H]2C[C@H](O)[C@@H](CO)O2)c(=O)n1", "measured-on": "CAKI-1", "GI50": "219 µM (inactive)"}
{"compound": "O=c1[nH]c(S)nc2c1sc(=S)n2-c1ccccc1", "measured-on": "CAKI-1", "GI50": "> 100 µM (inactive)"}
{"compound": "O=C(CSCC(=O)N/N=C/c1ccncc1)N/N=C/c1ccncc1", "measured-on": "CAKI-1", "GI50": "> 100 µM (inactive)"}
{"compound": "Cc1ccccc1/C=C/c1csnn1", "measured-on": "CAKI-1", "GI50": "> 100 µM (inactive)"}
{"compound": "O=C(CCc1nnc2s/c(=C\\c3ccccc3Cl)c(=O)n12)Nc1cc(Cl)ccc1Cl", "measured-on": "CAKI-1", "GI50": "> 100 µM (inactive)"}

Asked: Fill in the blank: the reported GI50 of O=C(O)C1c2ccccc2C(C(=O)O)c2ccccc21 (stereo not given) is ____.
Given back: > 100 µM (inactive)

Asked: Fill in the blank: the reported GI50 of CC(=O)C1(Cc2cccc3ccccc23)S(=O)(=O)OCCOS1(=O)=O is ____.
Given back: 15.9 µM (inactive)

Asked: Fill in the blank: the reported GI50 of CC1(C)CC(=O)c2c(nc3ccc4ccccc4c3c2-c2ccc(NC(=O)CCCCCCCCC(=O)Nc3ccc(-c4c5c(nc6ccc7ccccc7c46)CC(C)(C)CC5=O)cc3)cc2)C1 is ____.
Given back: > 100 µM (inactive)

Asked: Fill in the blank: the reported GI50 of NS(=O)(=O)c1nnc(NS(=O)(=O)c2cccc3cccnc23)s1 is ____.
Given back: > 100 µM (inactive)
